The measured values listed here are drawn from PubChem BioAssay AID1476.

tgt: Cruzipain (Trypanosoma cruzi) (UniProt P25779)
Sequence (P25779 123-467 limits assumed): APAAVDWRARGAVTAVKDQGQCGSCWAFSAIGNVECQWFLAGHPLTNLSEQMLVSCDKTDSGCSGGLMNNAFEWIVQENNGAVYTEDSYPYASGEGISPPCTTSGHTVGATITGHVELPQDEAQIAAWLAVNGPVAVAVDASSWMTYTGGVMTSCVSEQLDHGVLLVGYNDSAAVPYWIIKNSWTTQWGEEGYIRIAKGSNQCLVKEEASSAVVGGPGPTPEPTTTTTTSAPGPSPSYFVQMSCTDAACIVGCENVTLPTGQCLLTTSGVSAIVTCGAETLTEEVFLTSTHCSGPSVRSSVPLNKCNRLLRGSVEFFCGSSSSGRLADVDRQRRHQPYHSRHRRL
assay.details: qHTS Assay for Promiscuous and Specific Inhibitors of Cruzain (without detergent);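 note: plate controls were enzyme without inhibitor for no effect and buffer without enzyme for full effect; nearly all actives have a fitted effect of over 40% in size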
measurement.setup: purified cruzain, Z-FR-AMC fluorescence, no detergent
In all, about 200,000 compounds went through this assay and about 4,500 (2.2%) were called active. Roughly 12% stayed inconclusive and do not appear here. This excerpt belongs to a sample that is enriched for actives.
This section presents compounds with their documented max response, negative = inhibition values.
// return numeric value only (unit: %, not printed)

The examples below pair each entry with its known result.
- compound: "COc1cccc(NC(=S)NCCCN2CCOCC2)c1"
  max response, negative = inhibition (%): 9.47
- compound: "CCc1ccc(NC(=O)N2CCN(C(=O)c3nsc4ccccc34)CC2)cc1"
  max response, negative = inhibition (%): -5.87
- compound: "CCOc1ccc(NC(=O)c2c(NC(=O)Cc3ccccc3)sc3c2CCC(C)C3)cc1 (stereo unspecified)"
  max response, negative = inhibition (%): 1.97

*Q* Which value of max response, negative = inhibition has been reported for CCCN1C(=O)C(O)(CC(=O)c2ccc(CC)cc2)c2cc(Br)ccc21 (stereo unspecified) in the records?
*A* 2.6

*Q* Which value of max response, negative = inhibition has been reported for Cc1cccc(NC(c2cccc(F)c2)c2ccc3ccc(C)nc3c2O)n1 (stereo unspecified) in the records?
*A* 9.47

*Q* Which value of max response, negative = inhibition has been reported for COc1ccc(Nc2cc(=O)oc3ccccc23)cc1 in the records?
*A* -23.8

*Q* Which value of max response, negative = inhibition has been reported for Cc1nc2ccccn2c(=O)c1NC(=O)c1c(F)cccc1F in the records?
*A* -1.01

*Q* Which value of max response, negative = inhibition has been reported for COc1cc(NC(=O)Nc2ccc(C)cc2)cc([N+](=O)[O-])c1 in the records?
*A* -24.4

*Q* Which value of max response, negative = inhibition has been reported for CCOc1ccccc1NC(=O)CCc1ccc(C)o1 in the records?
*A* 8.1

*Q* Which value of max response, negative = inhibition has been reported for CCOC(=O)c1c(NC(=O)/C=C/c2ccc(OC)cc2)sc2c1CCC(C)C2 (stereo unspecified) in the records?
*A* -18.7

*Q* Which value of max response, negative = inhibition has been reported for COc1ccc(CNC(=O)c2cc3cccc(OC)c3oc2=O)cc1 in the records?
*A* -1.78
